meta.source: patent US20190062438A1

// reported IC50 GM-CSF, TF-1 proliferation for each item listed
Molecular target: T1, human CD131 (human, UniProt P32927 17-897)
T1 sequence: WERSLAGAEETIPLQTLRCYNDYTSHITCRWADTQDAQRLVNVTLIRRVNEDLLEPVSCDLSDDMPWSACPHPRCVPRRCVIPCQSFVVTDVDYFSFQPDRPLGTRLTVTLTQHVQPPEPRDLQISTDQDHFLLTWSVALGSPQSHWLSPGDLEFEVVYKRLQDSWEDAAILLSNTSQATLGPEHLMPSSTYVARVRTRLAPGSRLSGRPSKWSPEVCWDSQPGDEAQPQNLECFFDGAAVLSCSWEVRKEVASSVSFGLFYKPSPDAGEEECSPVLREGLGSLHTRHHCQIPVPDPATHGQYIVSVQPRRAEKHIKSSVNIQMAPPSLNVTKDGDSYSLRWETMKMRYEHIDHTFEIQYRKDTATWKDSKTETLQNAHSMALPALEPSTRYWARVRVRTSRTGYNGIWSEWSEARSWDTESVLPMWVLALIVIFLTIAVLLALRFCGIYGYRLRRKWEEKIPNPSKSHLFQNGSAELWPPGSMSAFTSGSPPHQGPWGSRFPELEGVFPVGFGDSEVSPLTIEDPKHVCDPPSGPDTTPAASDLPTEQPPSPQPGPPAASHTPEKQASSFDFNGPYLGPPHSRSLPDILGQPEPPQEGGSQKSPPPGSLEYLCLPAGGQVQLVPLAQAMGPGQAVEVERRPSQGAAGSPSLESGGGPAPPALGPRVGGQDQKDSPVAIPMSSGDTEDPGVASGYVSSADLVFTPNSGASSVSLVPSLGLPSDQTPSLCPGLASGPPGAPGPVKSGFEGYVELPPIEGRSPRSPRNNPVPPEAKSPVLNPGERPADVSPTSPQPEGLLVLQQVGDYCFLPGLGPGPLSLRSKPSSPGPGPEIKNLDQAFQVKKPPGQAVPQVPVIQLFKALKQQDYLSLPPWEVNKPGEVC
Assay: cell-based or functional assay

| binder | IC50 GM-CSF, TF-1 proliferation |
| --- | --- |
| 9A2-VR24.87 (antibody, V domains shown) VH: EVQLLESGGGLVQPGGSLRLSCAASGFTFPWYRVHWVRQAPGKGLEWVSSIHTHSDWTYYADSVKGRFTISRDNSKNTLYLQMNSLRAEDTAVYYCARFYDSFFDIWGQGTMVTVSS VL: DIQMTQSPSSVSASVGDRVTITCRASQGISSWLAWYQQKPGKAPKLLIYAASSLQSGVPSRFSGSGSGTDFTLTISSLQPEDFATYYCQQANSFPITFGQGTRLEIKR | 2.37 nM |
| 9A2-VR39.103 (antibody, V domains shown) VH: EVQLLESGGGLVQPGGSLRLSCAASGFTFQHFHWVWVRQAPGKGLEWVSSINGRGRVTYYADSVKGRFTISRDNSKNTLYLQMNSLRAEDTAVYYCARFYDSFFDIWGQGTMVTVSS VL: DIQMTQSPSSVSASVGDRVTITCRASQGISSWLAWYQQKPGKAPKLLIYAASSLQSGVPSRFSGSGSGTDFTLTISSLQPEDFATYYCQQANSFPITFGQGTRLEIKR | 5.14 nM |

Query: For 9A2-VR39.102 (antibody, V domains shown) VH: EVQLLESGGGLVQPGGSLRLSCAASGFTFQWFHYIWVRQAPGKGLEWVSSINGRGRVTYYADSVKGRFTISRDNSKNTLYLQMNSLRAEDTAVYYCARFYDSFFDIWGQGTMVTVSS VL: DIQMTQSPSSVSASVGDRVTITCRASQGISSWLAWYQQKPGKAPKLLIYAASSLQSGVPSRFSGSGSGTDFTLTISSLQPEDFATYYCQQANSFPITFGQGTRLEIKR , what is its reported IC50 GM-CSF, TF-1 proliferation?
Result: 2.29 nM
